- Experimental details: qHTS assay for identifying genotoxic compounds that show differential cytotoxicity against isogenic chicken DT40 cell lines with known DNA damage response pathways - wild type cell line (AID 743012); also: nearly all actives have a fitted effect of over 60% in size
- Details: DT40 wild type chicken cells viability, CellTiter-Glo, 40 h; series mostly up to 68.4 µM
Records with an inconclusive call do not appear. Calls of active or inactive are those of the source. Calls follow the shape of the dose curve; as a rule, active = well fitted cell-killing curve with a large enough effect in the repeat runs; inconclusive = weak or mixed curves, or effect the other way; inactive = no such curve, though single readings can be large or run the other way.
Outcomes: active, inactive

smiles_code=NS(=O)(=O)O classification=inactive
smiles_code=CC(=O)Nc1c(I)c(NC(C)=O)c(I)c(C(=O)O)c1I classification=inactive
smiles_code=CCCCCCc1ccc(O)cc1O classification=active
smiles_code=Cc1c(C(=O)O)c(O)cc2c1C(=O)c1c(O)c([C@@H]3O[C@H](CO)[C@@H](O)[C@H](O)[C@H]3O)c(O)c(O)c1C2=O classification=inactive
smiles_code=Oc1ccccc1 classification=inactive
smiles_code=Cc1ncc([N+](=O)[O-])n1C classification=inactive
smiles_code=COc1ccc2c(c1)c(CC(=O)O)c(C)n2C(=O)c1ccc(Cl)cc1 classification=inactive

====

- Tested system: Cytochrome P450 2C9 (Homo sapiens)
- Experimental details: Cytochrome P450 Family 2 Subfamily C Member 9 (CYP2C9) small molecule antagonists: luciferase reporter qHTS assay (AID 1671198); also: nearly all actives have a fitted effect of over 50% in size
- Details: P450-Glo CYP2C9 enzyme assay, luciferin luminescence; series mostly up to 115 µM
Records with an inconclusive call do not appear. Active and inactive are the calls of the source. Calls come from the whole dose curve; as a rule, active = well fitted inhibition curve with a large enough effect in the repeat runs; inconclusive = weak or mixed curves; inactive = no such curve, though single readings can be large or run the other way.
Outcome codes: 1 = active, 0 = inactive

molecule="C1CCC(C(CC2CCCCN2)C2CCCCC2)CC1 (configuration not stated)" classification=0
molecule=Nc1c2c(nc3ccccc13)CCCC2 classification=0
molecule="CN(C)CCOC(C)(c1ccccc1)c1ccccn1 (configuration not stated)" classification=0
molecule=Cc1cc(=O)oc2cc(O)ccc12 classification=0
molecule=COc1cccc(O)c1O classification=0
molecule=CCOC(N)=O classification=0
molecule=COc1ccc2cc(S(=O)(=O)N[C@H](CC(=O)N[C@H](Cc3ccc(CN4[C@H](C)CCC[C@@H]4C)cc3)C(=O)N(C)C(C)C)c3ccc4c(c3)OCO4)ccc2c1 classification=1

====

- Experimental details: qHTS assay for small molecules that induce genotoxicity in human embryonic kidney cells expressing luciferase-tagged ATAD5 (AID 651632); also: nearly all actives have a fitted effect of over 15% in size
- Details: HEK293T ATAD5-luciferase induction, 16 h; series mostly up to 83.3 µM
Results filed as inconclusive are left out. Active and inactive are the calls of the source. The call rests on the fitted dose curve; in most records, active means well fitted activation curve with a large enough effect in the repeat runs; inconclusive means weak or mixed curves; inactive means no such curve, though single readings can be large or run the other way.
Assay readout: outcome

smiles_code=Cc1cccc(C)c1 assay_readout=outcome recorded_value=inactive
smiles_code=O=C1OC2(c3ccccc31)c1cc(Br)c(O)c(Br)c1Oc1c2cc(Br)c(O)c1Br assay_readout=outcome recorded_value=inactive
smiles_code=CN(C)C(=O)Nc1ccc(Cl)c(Cl)c1 assay_readout=outcome recorded_value=inactive
smiles_code=CS(=O)(=O)OCCCCOS(C)(=O)=O assay_readout=outcome recorded_value=inactive
smiles_code=CCCc1cc(=O)[nH]c(=S)[nH]1 assay_readout=outcome recorded_value=inactive

====

- Experimental details: A CellTox Green Cytotoxicity Assay to monitor cytotoxicity in HepG2 cells - 16 hour (AID 1224876); also: nearly all actives have a fitted effect of over 45% in size
- Details: CellTox Green fluorescence; series mostly up to 76.8 µM
Results filed as inconclusive are left out. Calls of active or inactive are those of the source. Calls come from the whole dose curve; as a rule, active = well fitted activation curve with a large enough effect in the repeat runs; inconclusive = weak or mixed curves; inactive = flat fitted curve, though single readings scatter.
Outcomes: active, inactive

compound=COc1ccc(CN(CCN(C)C)c2ccccn2)cc1 classification=inactive
compound=Cc1c(C(=O)O)c(O)cc2c1C(=O)c1c(O)c([C@@H]3O[C@H](CO)[C@@H](O)[C@H](O)[C@H]3O)c(O)c(O)c1C2=O classification=inactive
compound=Cc1cn([C@H]2C=C[C@@H](CO)O2)c(=O)[nH]c1=O classification=inactive
compound=COc1ccc(OC(F)(F)F)cc1CN[C@H]1CCCN[C@H]1c1ccccc1 classification=active
compound=C=C1CC[C@H](O)C/C1=C\C=C1/CCC[C@]2(C)[C@@H]([C@H](C)CCCC(C)C)CC[C@@H]12 classification=inactive
compound=C[C@](N)(Cc1ccc(O)c(O)c1)C(=O)O classification=inactive
compound=Oc1ccccc1 classification=inactive
compound="CC(C)NCC(O)c1ccc(O)c(O)c1 (configuration not stated)" classification=inactive
compound=CCc1nc(N)nc(N)c1-c1ccc(Cl)cc1 classification=inactive
compound=CC1(C)S[C@@H]2[C@H](NC(=O)[C@H](N)c3ccccc3)C(=O)N2[C@H]1C(=O)O classification=inactive
compound=F[B-](F)(F)F classification=inactive
compound=CCCc1cc(=O)[nH]c(=S)[nH]1 classification=inactive

Data provenance is PubChem BioAssay (Tox21).
